- Tested on: KM12
- assay_protocol: NCI tumour cell line growth inhibition, 48 h
Active and inactive are the calls of the source. Rule as the data show it: active = GI50 up to about 1.1 µM and inactive = higher.
recorded_endpoint: GI50

// lookup GI50 for `COc1cccc(/C=N/C(/N=C/c2cccc(OC)c2O)c2cccc(OC)c2O)c1O`
22.6 µM (inactive)

// lookup GI50 for `Fc1ccccc1CN1COc2c(cc(Cl)c3cccnc23)C1`
2.23 µM (inactive)

// lookup GI50 for `CN(C)NC(=O)/C(=C/c1ccc(Cl)cc1)NC(=O)c1ccccc1`
> 100 µM (inactive)

// lookup GI50 for COc1ccc(-n2c(C)nc3ccc(NC4OC(COC(C)=O)C(OC(C)=O)C(OC(C)=O)C4OC(C)=O)cc3c2=O)cc1 (centres undefined)
> 100 µM (inactive)

FYI, the data here is from ChEMBL document CHEMBL1201862.
